Please provide measured protein stability index for the entries that follow.
B1: UFD1L (parent)
chain: EAGGRFVAFSGEGQSLRKKGRKP

Variants of: B1
assay.explanation: protein stability index of a GFP-peptide fusion (GPS, HEK-293T) (PSI 1-6); higher = more stable;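 note: lentivirally expressed fusions sorted by FACS into six bins by GFP to DsRed ratio, PSI derived from sequencing read proportions per bin multiplied by bin number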
assay.conditions: c terminus: native
Form: value (number only, do not type unit).

Task: For EAGGRFVAFAGEGQSLRKKGRKP , what is its reported protein stability index?
Output: 1.38

Task: Report protein stability index for EAGGRFVAFSGKGQSLRKKGRKP please.
Output: 1.69

Task: Record request: protein stability index value, item EAGGRSVAFSGEGQSLRKKGRKP
Output: 2.41

Task: Item EAGGRTVAFSGEGQSLRKKGRKP has what recorded protein stability index?
Output: 4.93

Source of measurements: the supplement of paper PMC10567573
